# experimental details: Cytotoxicity against human HEK293 cells assessed as cell viability at 20 to 50 uM by MTT assay relative to control
# Assay type: cell-based
# reported conditions: read-out: Activity

chem smiles | viability at up to 50 µM
CCCCCCCC[C@H]1N[C@H](C(=O)OC)Cc2c1[nH]c1ccccc21 | 70 to 80%

---

# experimental details: Cytotoxicity against human HEK293 cells assessed as reduction in cell viability at 10 uM by MTT assay relative to control
# Format: cell-based
# reported conditions: read-out: INH

chem smiles | cytotoxicity at 10 µM (%)
CCCCCCCC[C@H]1N[C@H](C(=O)OC)Cc2c1[nH]c1ccccc21 | 10

---

# experimental details: Cytotoxicity against human HEK293 cells assessed as cell viability at 2.5 uM by MTT assay relative to control
# Format: cell-based
# reported conditions: read-out: Activity

chem smiles | reading unit | viability at 2.5 µM
CCCCCCCC[C@H]1N[C@H](C(=O)OC)Cc2c1[nH]c1ccccc21 | % | 95

---

# experimental details: Cytotoxicity against human HeLa cells assessed as cell viability at 20 to 50 uM by MTT assay relative to control
# Type: cell-based
# reported conditions: read-out: Activity

chem smiles | viability at up to 50 µM
CCCCCCCC[C@H]1N[C@H](C(=O)OC)Cc2c1[nH]c1ccccc21 | 70 to 80%
